Recorded values, source patent US12319640B2.

Kindly state percentage damage caused to the plant, LOLPE POST for each of the entries shown.
Tested on: Lolium perenne (LOLPE)
measurement notes: Glasshouse herbicide test, pre- and post-emergence
Format: in vivo
measurement conditions: post-emergence, 250 g/h, evaluated after 13 days, five-point scale

CNC(=O)C1CCC2(CC1)CC(=O)C(c1c(C)cc(-c3ccc(F)cc3)cc1C)C(=O)C2 (stereo not shown) :: 5 (5=80-100%)
CC#Cc1cc(C)c(C2C(=O)CC3(CCC(NC(C)=O)CC3)CC2=O)c(OC)c1 (stereo not shown) :: 5 (5=80-100%)
CC#Cc1cc(C)c(C2C(=O)CC3(CCC(NC(=O)COC(F)F)CC3)CC2=O)c(C)c1 (stereo not shown) :: 5 (5=80-100%)

Please report the recorded percentage damage caused to the plant, LOLPE POST for CC#Cc1cc(C)c(C2C(=O)CC3(CCC(NC(=O)c4ccnc(F)c4)CC3)CC2=O)c(C)c1 (stereo not shown) .
5 (5=80-100%)
